# system: T1, human serum albumin (human, UniProt P02768 25-609)
# T1 construct: Negative control of the ELISA; also called HSA
# T1 sequence (P02768 25-609 limits assumed): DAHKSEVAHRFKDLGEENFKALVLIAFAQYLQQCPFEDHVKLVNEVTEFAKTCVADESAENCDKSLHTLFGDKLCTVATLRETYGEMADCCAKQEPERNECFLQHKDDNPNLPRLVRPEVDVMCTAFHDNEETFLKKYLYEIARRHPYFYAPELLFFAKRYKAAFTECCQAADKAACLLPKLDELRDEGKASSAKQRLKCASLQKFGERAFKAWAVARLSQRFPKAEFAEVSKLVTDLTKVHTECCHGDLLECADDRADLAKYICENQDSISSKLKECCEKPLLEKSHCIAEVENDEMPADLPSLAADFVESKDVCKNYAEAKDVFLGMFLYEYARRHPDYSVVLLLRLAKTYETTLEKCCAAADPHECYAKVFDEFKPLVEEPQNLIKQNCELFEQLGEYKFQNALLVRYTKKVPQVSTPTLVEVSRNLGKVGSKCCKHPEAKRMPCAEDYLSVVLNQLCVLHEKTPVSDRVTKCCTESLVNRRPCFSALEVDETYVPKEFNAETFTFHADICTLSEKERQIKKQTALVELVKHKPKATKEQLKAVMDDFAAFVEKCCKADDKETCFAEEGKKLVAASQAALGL
# test_protocol: ELISA, negative control HSA
// reported ELISA HSA (RLU) per item
Respond with the bare value in RLU.

Some entries whose results are on file:
binder	number
ISOP193ER9P1E4 (designed binder, not shown: small tags and cut ends) LPAPKNLVVSRVTEDSARLSWTAPDAAFDSFAIIYQEYVKSGEAIVLTVPGSERSYDLTGLKPGTEYHVRIGGVKGGLLSLPLSAIFTT	480
ISOP193GR9P1E10 (designed binder, not shown: small tags and cut ends) LPAPKNLVVSRVTEDSARLSWTAPDAAFDSFAISYTESIRQGEAIWLWVPGSERSYDLTGLKPGTEYEVTIGGVKGGIRSYPLWAWFTT	480
ISOP193HR9P1A10 (designed binder, not shown: small tags and cut ends) LPAPKNLVVSRVTEDSARLSWTAPDAAFDSFDIYYLEPWGGGEAIVLTVPGSERSYDLTGLKPGTEYWVTIYGVKVCLGSNPLSAIFTT	1520

*Q* Query ELISA HSA (RLU) for ISOP193ER9P1F7 (designed binder, not shown: small tags and cut ends) LPAPKNLVVSRVTEDSAHLSWTAPDAAFDSFDIYYFEHPVGGEAIVLTVPGSERSYDLTGLKPGTEYLVTIYGVKGGYLSMPLSAIFTT
*A* 480

*Q* Report ELISA HSA (RLU), nothing else, for this binder: ISOP193ER9P1E2 (designed binder, not shown: small tags and cut ends) LPAPKNLVVSRVTEDSARLSWTAPDAAFDSFDIYYFEHPVGGEAIVLTVPGSERSYDLTGLKPGTEYLVTIYGVKGGFWSQPLSAIFTT
*A* 560

*Q* Tell us which ELISA HSA (RLU) value is on record for ISOP193ER9P1E8 (designed binder, not shown: small tags and cut ends) LPAPKNLVVSRVTEDSARLSWTAPDAAFDSFDIYYFEHPVGGEAIVLTVPGSERSYDLTGLKPGTEYLVTIYGVKGGELSKPLSAIFTT
*A* 480

*Q* Entry ISOP193ER9P1A4 (designed binder, not shown: small tags and cut ends) LPAPKNLIVSRVTEDSARLSWTAPDAAFDSFEIYYKELRAEGEAIVLTVPGSERSYDLTGLKPGTEYLVTIYGVKGGSVSIPLSAIFTT needs its ELISA HSA (RLU) filled in; supply it.
*A* 480

*Q* Given the binder ISOP193FR9P1A11 (designed binder, not shown: small tags and cut ends) LPAPKNLVVSRVTEDSARLSWTAPDAAFDSFAIQYWEGWEWGEAIVLTVPGSERSYDLTGLKPGTEYLVTIYGVKGGHWSRPLSAIFTT , write its reported ELISA HSA (RLU).
*A* 880

*Q* Assign ELISA HSA (RLU) to the following record: ISOP193ER9P1H2 (designed binder, not shown: small tags and cut ends) LPAPKNLVVSRVTEDSARLSWTAPDAAFDSFRISYLEDVYYGEAIVLTVPGSERSYDLTGLKPGTEYHVGIHGVKGGIDSFPLSAIFTT
*A* 560
